Target: Casein kinase I isoform delta (Homo sapiens) (UniProt P48730)
Sequence (P48730 whole entry, looked up, canonical isoform): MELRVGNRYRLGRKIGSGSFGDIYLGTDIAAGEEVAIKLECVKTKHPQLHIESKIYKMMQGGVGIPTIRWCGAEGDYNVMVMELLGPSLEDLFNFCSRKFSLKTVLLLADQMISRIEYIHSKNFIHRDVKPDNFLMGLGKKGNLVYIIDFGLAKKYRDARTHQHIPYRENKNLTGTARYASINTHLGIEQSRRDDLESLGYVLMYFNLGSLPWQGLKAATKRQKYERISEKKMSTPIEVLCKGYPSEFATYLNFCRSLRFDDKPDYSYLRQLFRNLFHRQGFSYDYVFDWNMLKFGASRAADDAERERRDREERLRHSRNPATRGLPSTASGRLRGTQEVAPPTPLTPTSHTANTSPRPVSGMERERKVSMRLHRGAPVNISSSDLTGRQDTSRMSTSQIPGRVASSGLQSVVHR
Assay: inhibition of casein kinase 1 delta activity – biochemical, radioactive 33P-ATP, purified kinase, powder samples, late-stage follow-up (AID 463077)
Conditions: purified CK1d, 33P-ATP filter-binding, CK1tide
Calls of active or inactive are those of the source.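 The calls were made as follows: active = compounds whose half-inhibition concentration IC50 on CK1 delta kinase is at most 1 µM; inactive = the rest.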
Parameter call: string, one of true (1) (active), false (0) (inactive)

Answered cases to consult:
CC(C)n1cnc2c(NCc3nc4c([N+](=O)[O-])cccc4[nH]3)nc(N3CCOCC3)nc21; true (1)
N#Cc1ccc2nc(CNc3nc(N4CCOCC4)nc4c3ncn4-c3ccsc3)[nH]c2c1; true (1)
Cc1ccnc(NC(=O)CCCOc2cc(=O)n(C)c3ccccc23)c1; false (0)
O=[N+]([O-])c1cccc2[nH]c(CNc3nc(N4CCOCC4)nc4c3ncn4-c3ccsc3)nc12; true (1)

Hi, do you know how `O=[N+]([O-])c1ccc2nc(CNc3nc(N4CCOCC4)nc4c3ncn4-c3ccsc3)[nH]c2c1` came out in this test?
true (1)

Item: `CCOC(=O)c1cccc2[nH]c(CNc3nc(N4CCOCC4)nc4c3ncn4-c3ccsc3)nc12`
true (1)

Item: `FC(F)(F)c1cccc2[nH]c(CNc3nc(N4CCOCC4)nc4c3ncn4-c3ccsc3)nc12`
true (1)

Item: `FC(F)(F)c1ccc2nc(CNc3nc(N4CCOCC4)nc4c3ncn4-c3ccsc3)[nH]c2c1`
true (1)

Item: `c1ccc2[nH]c(CNc3nc(N4CCOCC4)nc4c3ncn4-c3ccsc3)nc2c1`
true (1)
